- SYSTEM: Mucosa-associated lymphoid tissue lymphoma translocation protein 1 (Homo sapiens) (UniProt Q9UDY8)
- Sequence (whole entry): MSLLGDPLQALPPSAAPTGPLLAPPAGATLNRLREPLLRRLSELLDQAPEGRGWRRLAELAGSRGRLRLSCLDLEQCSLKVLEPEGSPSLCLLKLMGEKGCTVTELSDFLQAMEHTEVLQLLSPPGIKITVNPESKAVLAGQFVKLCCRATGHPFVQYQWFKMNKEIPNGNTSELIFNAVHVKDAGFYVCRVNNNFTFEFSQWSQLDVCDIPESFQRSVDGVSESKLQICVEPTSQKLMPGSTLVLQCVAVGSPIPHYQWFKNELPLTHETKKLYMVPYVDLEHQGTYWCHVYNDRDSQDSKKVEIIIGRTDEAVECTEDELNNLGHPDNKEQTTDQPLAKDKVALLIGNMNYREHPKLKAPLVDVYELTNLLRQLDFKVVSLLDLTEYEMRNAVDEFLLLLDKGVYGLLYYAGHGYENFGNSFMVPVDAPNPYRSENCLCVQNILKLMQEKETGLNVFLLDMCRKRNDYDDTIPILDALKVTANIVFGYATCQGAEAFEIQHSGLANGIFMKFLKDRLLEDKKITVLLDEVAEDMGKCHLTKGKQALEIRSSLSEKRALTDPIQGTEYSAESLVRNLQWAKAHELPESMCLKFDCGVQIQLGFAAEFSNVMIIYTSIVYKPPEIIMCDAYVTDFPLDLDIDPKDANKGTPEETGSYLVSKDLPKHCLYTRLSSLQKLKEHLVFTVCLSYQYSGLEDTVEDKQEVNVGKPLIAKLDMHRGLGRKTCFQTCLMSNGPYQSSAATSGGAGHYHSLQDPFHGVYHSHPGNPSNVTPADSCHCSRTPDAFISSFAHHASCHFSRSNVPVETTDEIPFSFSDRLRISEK
- ASSAY_COMMENT: Inhibition of recombinant Malt1 (unknown origin) at 1 to 100 uM preincubated for 1 hr followed by (S)-1-((6-(4-(4-(5,5-Difluoro-3,7-bis(4-methoxyphenyl)-5H-4l4,5l4-dipyrrolo[1,2-c:20,10-f][1,3,2]diazaborinin-10-yl)butyl)-1H-1,2,3-triazol-1-yl)hexanoyl)-L-valyl-L-arginyl)-N-((S)-1-fluoro-6-guanidino-2-oxohexan-3-yl)pyrrolidine-2-carboxamide addition and incubated for 1 hr by SDS-PAGE based competitive activity-based protein profiling assay

# ITEM_SMILES, pIC50(app)
rows = [
    ("COCCOc1nc(-c2ccc(Cl)cc2)n(-c2ccc(NC(=O)CCl)cc2)n1", 5.52),
    ("COCCOc1nc(-c2ccc(C)cc2)n(-c2ccc(NC(=O)CCl)cc2)n1", 5.09),
    ("COCCOc1nc(-c2ccc(Br)cc2)n(-c2ccc(NC(=O)CCl)cc2)n1", 5.68),
    ("COCCOc1nc(-c2ccc(Cl)c(Cl)c2)n(-c2ccc(NC(=O)CCl)cc2)n1", 5.11),
    ("COCCOc1nc(-c2ccc(F)cc2)n(-c2ccc(NC(=O)CCl)cc2)n1", 4.99),
]

---

- SYSTEM: Mucosa-associated lymphoid tissue lymphoma translocation protein 1 (Homo sapiens) (UniProt Q9UDY8)
- ASSAY_COMMENT: Inhibition of recombinant Malt1 (unknown origin) at 10 to 1000 uM preincubated for 1 hr followed by (S)-1-((6-(4-(4-(5,5-Difluoro-3,7-bis(4-methoxyphenyl)-5H-4l4,5l4-dipyrrolo[1,2-c:20,10-f][1,3,2]diazaborinin-10-yl)butyl)-1H-1,2,3-triazol-1-yl)hexanoyl)-L-valyl-L-arginyl)-N-((S)-1-fluoro-6-guanidino-2-oxohexan-3-yl)pyrrolidine-2-carboxamide addition and incubated for 1 hr by SDS-PAGE based competitive activity-based protein profiling assay
OUTCOME_MEASURE: pIC50(app)

# ITEM_SMILES, EXPERIMENTAL_RESULT
records = [
    ("COCCOc1nc(-c2ccccc2)n(-c2ccc(NC(=O)CCl)cc2)n1", 4.01),
    ("COCCOc1nc(-c2ccc(Cl)cc2)n(-c2ccc(NC(=O)CCl)cc2)n1", 5.81),
    ("COCCOc1nc(-c2ccc(C(F)(F)F)cc2)n(-c2ccc(NC(=O)CCl)cc2)n1", 4.66),
    ("COCCOc1nc(-c2cccc(C)c2)n(-c2ccc(NC(=O)CCl)cc2)n1", 3.56),
    ("COCCOc1nc(-c2ccc(F)c(F)c2)n(-c2ccc(NC(=O)CCl)cc2)n1", 4.59),
    ("COCCOc1nc(-c2ccc(OC)c(OC)c2)n(-c2ccc(NC(=O)CCl)cc2)n1", 4.92),
    ("COCCOc1nc(-c2cccc(C(F)(F)F)c2)n(-c2ccc(NC(=O)CCl)cc2)n1", 4.03),
    ("COCCOc1nc(-c2ccc(C)cc2)n(-c2ccc(NC(=O)CCl)cc2)n1", 5.05),
    ("C=CC(=O)Nc1ccc(-n2nc(OCCOC)nc2-c2ccc(Cl)c(Cl)c2)cc1", 4.47),
    ("COCCOc1nc(-c2cccc(OC)c2)n(-c2ccc(NC(=O)CCl)cc2)n1", 3.71),
]
